Data provenance is the Immune Epitope Database (IEDB).

Target: HLA-A*02:11
Assay: IEDB peptide-MHC binding, purified MHC/direct/fluorescence; filed as Kd, often an IC50 or EC50 that approximates it; bounds were set here for any values at or beyond the usual limits of such assays
Details: source organism: West Nile virus strain PTRoxo
pKd: −log10 of the molar value.
MEASURED_QUANTITY: pKd

Ask: Look at this sequence and give its reported pKd. MTRGLLGSY
Result: ≤ 4.70

* * *

Target: HLA-B*35:01
Assay: IEDB peptide-MHC binding, purified MHC/direct/fluorescence; filed as Kd, often an IC50 or EC50 that approximates it; bounds were set here for any values at or beyond the usual limits of such assays
Conditions: source organism: Escherichia coli O157:H7 str. EC4486
MEASURED_QUANTITY: Kd (nM)
The reply should contain only the number, in nM.

Ask: For HLA-B*35:01, provide Kd of YAMMSLFDM please.
Result: 4

* * *

Molecular target: HLA-A*69:01
Test: IEDB peptide-MHC binding, purified MHC/direct/fluorescence; filed as Kd, often an IC50 or EC50 that approximates it; bounds were set here for any values at or beyond the usual limits of such assays
Conditions: source organism: Orthohantavirus andesense
MEASURED_QUANTITY: Kd

Ask: I'd like to know its Kd. The sequence in question is AYDHGNVIL
Result: ≥ 20 µM

* * *

Target: HLA-B*18:01
Experiment: IEDB peptide-MHC binding, purified MHC/competitive/radioactivity; filed as Kd, often an IC50 or EC50 that approximates it; bounds were set here for any values at or beyond the usual limits of such assays
Details: source organism: Mammarenavirus choriomeningitidis
MEASURED_QUANTITY: pKd
Friendly reminder that pKd comes from taking -log10 of the concentration in mol/L.

Ask: What does the data say about its pKd? Entry: AELLPDTTY
Result: 5.94

* * *

Biological target: HLA-B*15:01
Test: IEDB peptide-MHC binding, purified MHC/competitive/radioactivity; filed as Kd, often an IC50 or EC50 that approximates it; bounds were set here for any values at or beyond the usual limits of such assays
Conditions: source organism: Vaccinia virus WR
MEASURED_QUANTITY: Kd (nM)
Reply numerically in nM, unit not repeated.

The following sequences have reported results that may help.
GTIMVSEHF	57.4
LSKNTFYLF	14.2
GECIKTCVF	115
FFLQRLYFL	1210

Ask: Please report the recorded Kd for LGRANITHF .
Result: 6.73

Ask: Which measured Kd value corresponds to QLYSTLLSF ?
Result: 3

* * *

Biological target: HLA-A*30:01
Assay: IEDB peptide-MHC binding, purified MHC/competitive/radioactivity; filed as Kd, often an IC50 or EC50 that approximates it; bounds were set here for any values at or beyond the usual limits of such assays
Conditions: source organism: Dengue virus 2 Jamaica/1409/1983
Attribute: log10 of Kd
Values are log10 of Kd in nM.

Reference set (4 entries):
KARSTPFNM	2.23
KTKRYLPAI	2.00
VVRLLTKPWD	3.58
VTFKNPHAK	2.44

Kindly review the next sequence as well.
Ask: # get_value(readout='log10 of Kd', item= RKKARSTPFN )
Result: 3.58

* * *

Biological target: HLA-B*07:02
Assay: IEDB peptide-MHC binding, purified MHC/direct/fluorescence; filed as Kd, often an IC50 or EC50 that approximates it; bounds were set here for any values at or beyond the usual limits of such assays
Settings: source organism: Squirrelpox virus
MEASURED_QUANTITY: Kd

Ask: Query for HLA-B*07:02: what Kd does the record show for MACHRVLTY ?
Result: ≥ 20 µM

* * *

Target: HLA-B*15:01
Experiment: IEDB peptide-MHC binding, purified MHC/direct/fluorescence; filed as Kd, often an IC50 or EC50 that approximates it; bounds were set here for any values at or beyond the usual limits of such assays
Conditions: source organism: Rickettsia bellii
pKd: −log10 of the molar value.
MEASURED_QUANTITY: pKd

Ask: Tell me the measured pKd of NIDPEHLDY , please.
Result: ≤ 4.70

* * *

Target: HLA-A*02:01
Assay: IEDB peptide-MHC binding, purified MHC/competitive/fluorescence; filed as Kd, often an IC50 or EC50 that approximates it; bounds were set here for any values at or beyond the usual limits of such assays
Conditions: source organism: Listeria monocytogenes serotype 4b str. H7858
MEASURED_QUANTITY: Kd

Ask: What value of Kd on HLA-A*02:01 does ITWPRTRHW have?
Result: ≥ 20 µM

* * *

Target: HLA-A*02:01
Experiment: IEDB peptide-MHC binding, purified MHC/competitive/fluorescence; bounds were set here for any values at or beyond the usual limits of such assays
Conditions: source organism: Hepatitis C virus subtype 1b
MEASURED_QUANTITY: IC50
The answer should read as a number with its unit following.

Ask: Return reported IC50; argument: KLSSLGLNAV
Result: 25 nM

* * *

Biological target: HLA-B*07:02
Assay: IEDB peptide-MHC binding, purified MHC/competitive/fluorescence; bounds were set here for any values at or beyond the usual limits of such assays
Details: source organism: Sudan ebolavirus
MEASURED_QUANTITY: IC50 (µM)
Please give a number only; it is taken to be in µM.

LRKRSRRQT	18.8

Please turn your attention to the following entry.
Ask: Need IC50, item LPRDKFRKS
Result: 16.9

* * *

Biological target: HLA-B*58:01
Assay: IEDB peptide-MHC binding, purified MHC/direct/fluorescence; filed as Kd, often an IC50 or EC50 that approximates it; bounds were set here for any values at or beyond the usual limits of such assays
Conditions: source organism: Mammarenavirus juninense
pKd: −log10 of the molar value.
MEASURED_QUANTITY: pKd

Ask: Entry under review: QVKRREGMF . Reported pKd?
Result: ≤ 4.70

* * *

Target: HLA-B*35:01
Test: IEDB peptide-MHC binding, purified MHC/competitive/fluorescence; filed as Kd, often an IC50 or EC50 that approximates it; bounds were set here for any values at or beyond the usual limits of such assays
Details: source organism: Mycobacterium tuberculosis C
MEASURED_QUANTITY: pKd
Interpret pKd as the negative base-10 log of the concentration measured in mol/L.

Ask: Value wanted: pKd (HLA-B*35:01) of entry FVARIDLGY
Result: 7.85

* * *

Biological target: HLA-B*08:01
Experiment: IEDB peptide-MHC binding, purified MHC/direct/fluorescence; filed as Kd, often an IC50 or EC50 that approximates it; bounds were set here for any values at or beyond the usual limits of such assays
Settings: source organism: Corynebacterium glutamicum
MEASURED_QUANTITY: Kd (nM)
# value in nM; strip the unit string

Ask: Looking for the measured Kd of FAAAAARTL , can you help?
Result: 2340

* * *

Target: HLA-B*45:01
Test: IEDB peptide-MHC binding, purified MHC/competitive/radioactivity; filed as Kd, often an IC50 or EC50 that approximates it; bounds were set here for any values at or beyond the usual limits of such assays
Details: source organism: SARS coronavirus Tor2
MEASURED_QUANTITY: pKd
pKd here: minus log base 10 of the concentration, concentration in moles per litre.

Known pKd results, listed for orientation:
AEVQIDRLIT	6.80
FDAWFSQRGG	6.44

Ask: # query: pKd | item IDFYLCFLAF | system: HLA-B*45:01
Result: 6.93

Ask: Notebook: pull reported pKd for HLA-B*45:01, entry RELHLSWEVG
Result: 5.89

Ask: Recorded pKd for MEAQFLYLYA with HLA-B*45:01, please?
Result: 8.35

Ask: Report pKd for RELHLSWEV tested on HLA-B*45:01.
Result: 7.75

* * *

Target: HLA-A*68:02
Test: IEDB peptide-MHC binding, purified MHC/direct/fluorescence; filed as Kd, often an IC50 or EC50 that approximates it; bounds were set here for any values at or beyond the usual limits of such assays
Details: source organism: Camelpox virus CMS
pKd: −log10 of the molar value.
MEASURED_QUANTITY: pKd

Ask: Observed pKd on HLA-A*68:02 for YYKDDISYF , please.
Result: ≤ 4.70

* * *

Biological target: HLA-C*15:02
Assay: IEDB peptide-MHC binding, purified MHC/direct/fluorescence; filed as Kd, often an IC50 or EC50 that approximates it; bounds were set here for any values at or beyond the usual limits of such assays
Settings: source organism: Mycobacterium tuberculosis H37Rv
MEASURED_QUANTITY: Kd

Ask: # get_value(readout= Kd, system= HLA-C*15:02) for YVRTNGASY
Result: ≥ 20 µM

* * *

Target: HLA-B*15:01
Experiment: IEDB peptide-MHC binding, purified MHC/direct/fluorescence; filed as Kd, often an IC50 or EC50 that approximates it; bounds were set here for any values at or beyond the usual limits of such assays
Settings: source organism: Rickettsia prowazekii
MEASURED_QUANTITY: pKd
The read-out pKd is expressed as -log10 of concentration in moles per litre.

Ask: Would you kindly share the measured pKd for GQFGSGWTW ?
Result: 6.86
